List of log10(MIC) values.
System: Pseudomonas
Assay: Compound was tested for antibacterial activity against Pseudomonas organism
Assay type: functional
Scale type: logarithmic (base 10). Underlying MIC unit: µg/mL.

compoundSmiles | log10(MIC)
CC(C)CCCCC(=O)N[C@@H](CCN)C(=O)N[C@H](C(=O)N[C@@H](CCN)C(=O)N[C@H]1CCNC(=O)[C@H]([C@@H](C)O)NC(=O)[C@H](CCNC(=O)[C@@H](N)Cc2ccc(O)cc2)NC(=O)[C@H](CCN)NC(=O)[C@H](CC(C)C)NC(=O)[C@@H](Cc2ccccc2)NC(=O)[C@H](CCN)NC1=O)[C@@H](C)O | -1.14
CC(C)CCCCC(=O)N[C@@H](CCN)C(=O)N[C@H](C(=O)N[C@@H](CCN)C(=O)N[C@H]1CCNC(=O)[C@H]([C@@H](C)O)NC(=O)[C@H](CCNC(=O)CCl)NC(=O)[C@H](CCN)NC(=O)[C@H](CC(C)C)NC(=O)[C@@H](Cc2ccccc2)NC(=O)[C@H](CCN)NC1=O)[C@@H](C)O | -1.07
CC(=O)NCC[C@H](NC(=O)CCCCC(C)C)C(=O)N[C@H](C(=O)N[C@@H](CCN)C(=O)N[C@H]1CCNC(=O)[C@H]([C@@H](C)O)NC(=O)[C@H](CCN)NC(=O)[C@H](CCN)NC(=O)[C@H](CC(C)C)NC(=O)[C@@H](Cc2ccccc2)NC(=O)[C@H](CCN)NC1=O)[C@@H](C)O | 0.45
CC(C)CCCCC(=O)N[C@@H](CCN)C(=O)N[C@H](C(=O)N[C@@H](CCN)C(=O)N[C@H]1CCNC(=O)[C@H]([C@@H](C)O)NC(=O)[C@H](CCNC(=O)C(Cl)Cl)NC(=O)[C@H](CCN)NC(=O)[C@H](CC(C)C)NC(=O)[C@@H](Cc2ccccc2)NC(=O)[C@H](CCN)NC1=O)[C@@H](C)O | 0.00
CC(C)CCCCC(=O)N[C@@H](CCNC(=O)[C@@H](N)CCCN=C(N)N)C(=O)N[C@H](C(=O)N[C@@H](CCN)C(=O)N[C@H]1CCNC(=O)[C@H]([C@@H](C)O)NC(=O)[C@H](CCN)NC(=O)[C@H](CCN)NC(=O)[C@H](CC(C)C)NC(=O)[C@@H](Cc2ccccc2)NC(=O)[C@H](CCN)NC1=O)[C@@H](C)O | -0.68

Now take the following compound into account.
Reported log10(MIC) ( `CC(C)CCCCC(=O)N[C@@H](CCN)C(=O)N[C@H](C(=O)N[C@@H](CCN)C(=O)N[C@H]1CCNC(=O)[C@H]([C@@H](C)O)NC(=O)[C@H](CCNC(=O)[C@@H](N)C[C@H](CCN)C(=O)OCc2ccccc2)NC(=O)[C@H](CCN)NC(=O)[C@H](CC(C)C)NC(=O)[C@@H](Cc2ccccc2)NC(=O)[C@H](CCN)NC1=O)[C@@H](C)O` ) = -1.06

Entry source: ChEMBL document CHEMBL1130694
